- Tested Target: 5-HT1D
- Procedure Text: In vitro receptor affinity, 5-HT1D
- Particulars: bovine; radioligand [3H]-serotonin
Quantity Name: Ki

Q: Entry C[N+]1([O-])CCN(c2cccc3[nH]c(=O)oc23)CC1 [N-oxide of SLV308, N-Oxide of SLV308] : reported Ki = ?
Ans: > 1 µM

* * *

- Tested Target: Dopamine-D5 (Homo sapiens, UniProt P21918)
- Sequence (P21918 whole entry): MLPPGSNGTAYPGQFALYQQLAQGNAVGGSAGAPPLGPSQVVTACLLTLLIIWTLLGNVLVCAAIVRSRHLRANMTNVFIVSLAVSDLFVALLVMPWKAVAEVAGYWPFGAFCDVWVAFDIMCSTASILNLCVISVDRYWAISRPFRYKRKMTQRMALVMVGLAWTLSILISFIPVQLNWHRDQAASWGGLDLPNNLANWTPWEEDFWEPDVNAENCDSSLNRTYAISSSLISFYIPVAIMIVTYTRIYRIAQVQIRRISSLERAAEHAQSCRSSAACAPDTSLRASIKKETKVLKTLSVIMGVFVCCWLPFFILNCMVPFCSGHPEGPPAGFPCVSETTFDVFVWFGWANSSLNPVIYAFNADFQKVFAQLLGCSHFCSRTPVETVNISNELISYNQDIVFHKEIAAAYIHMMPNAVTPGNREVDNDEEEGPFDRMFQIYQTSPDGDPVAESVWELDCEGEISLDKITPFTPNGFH
pKi: −log10 of the molar value.
Quantity Name: pKi

Q: Could you share what pKi was measured for C[N+]1([O-])CCN(c2cccc3[nH]c(=O)oc23)CC1 [N-oxide of SLV308, N-Oxide of SLV308] , tested on Dopamine-D5 (Homo sapiens, UniProt P21918)?
Ans: < 6.00

* * *

- Tested Target: Human dopamine-D3 receptor (Homo sapiens, UniProt P35462)
- Sequence (P35462 whole entry): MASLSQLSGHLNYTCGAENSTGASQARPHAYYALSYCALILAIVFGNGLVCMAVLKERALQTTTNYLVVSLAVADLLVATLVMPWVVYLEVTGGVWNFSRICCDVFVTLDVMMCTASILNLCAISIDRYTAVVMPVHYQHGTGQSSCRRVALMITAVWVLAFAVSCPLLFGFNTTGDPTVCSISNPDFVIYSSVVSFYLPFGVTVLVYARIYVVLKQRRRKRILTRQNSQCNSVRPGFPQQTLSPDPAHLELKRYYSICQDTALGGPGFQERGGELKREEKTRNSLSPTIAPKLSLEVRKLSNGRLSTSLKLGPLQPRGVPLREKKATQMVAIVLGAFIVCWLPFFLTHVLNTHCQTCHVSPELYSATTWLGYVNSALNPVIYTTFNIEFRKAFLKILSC
- Procedure Text: In vitro functional receptor activity
Quantity Name: pEC50
Scale: pEC50 equals -log10([C]), with [C] in mol/L.

Q: Entry C[N+]1([O-])CCN(c2cccc3[nH]c(=O)oc23)CC1 [N-oxide of SLV308, N-Oxide of SLV308] : reported pEC50 = ?
Ans: 7.30

* * *

- Tested Target: α1A-adrenergic (Rattus norvegicus)
- Sequence (P43140 1-466): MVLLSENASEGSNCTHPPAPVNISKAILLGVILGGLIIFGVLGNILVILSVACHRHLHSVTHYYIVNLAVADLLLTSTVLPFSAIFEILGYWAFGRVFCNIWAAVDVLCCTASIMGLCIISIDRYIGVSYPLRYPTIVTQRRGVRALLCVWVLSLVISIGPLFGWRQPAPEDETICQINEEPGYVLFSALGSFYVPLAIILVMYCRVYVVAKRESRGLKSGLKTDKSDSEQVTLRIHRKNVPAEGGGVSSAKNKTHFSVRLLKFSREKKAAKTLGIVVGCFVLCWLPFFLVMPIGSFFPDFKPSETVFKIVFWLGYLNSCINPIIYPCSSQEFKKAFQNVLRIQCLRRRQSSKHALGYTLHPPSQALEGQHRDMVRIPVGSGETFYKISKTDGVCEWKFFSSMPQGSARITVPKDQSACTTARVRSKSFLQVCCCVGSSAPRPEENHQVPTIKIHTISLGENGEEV
Quantity Name: pKi
Scale: pKi equals -log10([C]), with [C] in mol/L.

Q: Could you share what pKi was measured for C[N+]1([O-])CCN(c2cccc3[nH]c(=O)oc23)CC1 [N-oxide of SLV308, N-Oxide of SLV308] , tested on α1A-adrenergic (Rattus norvegicus)?
Ans: 6.20

* * *

- Tested Target: 5-HT7 (Homo sapiens)
- Sequence (P34969 whole entry): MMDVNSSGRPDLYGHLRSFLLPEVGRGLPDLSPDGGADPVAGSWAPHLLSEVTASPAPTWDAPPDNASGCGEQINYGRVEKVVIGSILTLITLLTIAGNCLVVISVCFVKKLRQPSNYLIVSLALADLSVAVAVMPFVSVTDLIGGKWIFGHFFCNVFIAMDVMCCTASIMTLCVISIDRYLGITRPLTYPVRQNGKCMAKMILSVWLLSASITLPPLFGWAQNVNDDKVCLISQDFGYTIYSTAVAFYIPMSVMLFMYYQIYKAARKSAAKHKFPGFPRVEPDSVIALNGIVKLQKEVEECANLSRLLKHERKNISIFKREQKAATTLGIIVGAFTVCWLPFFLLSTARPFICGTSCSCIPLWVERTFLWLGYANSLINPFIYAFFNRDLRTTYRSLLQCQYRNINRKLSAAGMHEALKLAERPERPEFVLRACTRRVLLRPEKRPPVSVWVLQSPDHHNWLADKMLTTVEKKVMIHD
Quantity Name: Ki

Q: Could you share what Ki was measured for C[N+]1([O-])CCN(c2cccc3[nH]c(=O)oc23)CC1 [N-oxide of SLV308, N-Oxide of SLV308] , tested on 5-HT7 (Homo sapiens)?
Ans: > 1 µM

* * *

- Tested Target: α1-adrenergic
- Procedure Text: In vitro receptor affinity, α1-adrenergic
- Format: binding
- Particulars: rat; radioligand [3H]-prazosin
Quantity Name: Ki

Q: Entry C[N+]1([O-])CCN(c2cccc3[nH]c(=O)oc23)CC1 [N-oxide of SLV308, N-Oxide of SLV308] : reported Ki = ?
Ans: > 1000 nM

* * *

- Tested Target: 5-HT3 (Rattus norvegicus, UniProt P35563)
- Sequence (P35563 24-483): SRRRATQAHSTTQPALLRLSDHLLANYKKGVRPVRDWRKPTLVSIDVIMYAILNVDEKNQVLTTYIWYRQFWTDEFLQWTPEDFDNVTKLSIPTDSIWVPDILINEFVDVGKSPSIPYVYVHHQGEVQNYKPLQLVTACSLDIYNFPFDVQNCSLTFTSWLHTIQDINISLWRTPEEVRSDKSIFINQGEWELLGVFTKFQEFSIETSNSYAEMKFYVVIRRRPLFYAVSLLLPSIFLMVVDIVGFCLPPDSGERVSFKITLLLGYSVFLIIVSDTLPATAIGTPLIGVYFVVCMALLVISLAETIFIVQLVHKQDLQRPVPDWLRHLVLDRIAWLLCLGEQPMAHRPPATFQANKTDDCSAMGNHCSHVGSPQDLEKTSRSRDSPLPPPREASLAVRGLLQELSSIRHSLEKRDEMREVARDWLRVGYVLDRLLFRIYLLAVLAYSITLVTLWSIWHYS
Quantity Name: Ki

Q: Could you share what Ki was measured for C[N+]1([O-])CCN(c2cccc3[nH]c(=O)oc23)CC1 [N-oxide of SLV308, N-Oxide of SLV308] , tested on 5-HT3 (Rattus norvegicus, UniProt P35563)?
Ans: > 1000 nM

* * *

- Tested Target: α1B-adrenergic (Rattus norvegicus, UniProt P15823)
- Sequence (P15823 whole entry): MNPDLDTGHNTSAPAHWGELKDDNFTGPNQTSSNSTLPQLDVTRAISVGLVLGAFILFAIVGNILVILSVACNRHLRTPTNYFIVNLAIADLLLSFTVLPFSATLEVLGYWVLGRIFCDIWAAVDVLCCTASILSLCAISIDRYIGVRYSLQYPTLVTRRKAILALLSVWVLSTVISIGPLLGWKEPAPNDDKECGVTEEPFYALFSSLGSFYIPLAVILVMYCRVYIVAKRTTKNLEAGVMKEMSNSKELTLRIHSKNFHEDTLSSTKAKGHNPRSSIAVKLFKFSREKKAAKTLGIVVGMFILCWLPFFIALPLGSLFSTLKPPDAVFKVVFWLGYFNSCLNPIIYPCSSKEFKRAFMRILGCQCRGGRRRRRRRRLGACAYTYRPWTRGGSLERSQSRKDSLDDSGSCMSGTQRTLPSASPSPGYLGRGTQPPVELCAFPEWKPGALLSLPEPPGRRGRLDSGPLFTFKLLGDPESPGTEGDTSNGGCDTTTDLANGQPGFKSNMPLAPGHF
Quantity Name: pKi
Scale: pKi equals -log10([C]), with [C] in mol/L.

Q: Could you share what pKi was measured for C[N+]1([O-])CCN(c2cccc3[nH]c(=O)oc23)CC1 [N-oxide of SLV308, N-Oxide of SLV308] , tested on α1B-adrenergic (Rattus norvegicus, UniProt P15823)?
Ans: 6.40

* * *

- Tested Target: 5-HT1B (Rattus norvegicus, UniProt P28564)
- Sequence (P28564 whole entry): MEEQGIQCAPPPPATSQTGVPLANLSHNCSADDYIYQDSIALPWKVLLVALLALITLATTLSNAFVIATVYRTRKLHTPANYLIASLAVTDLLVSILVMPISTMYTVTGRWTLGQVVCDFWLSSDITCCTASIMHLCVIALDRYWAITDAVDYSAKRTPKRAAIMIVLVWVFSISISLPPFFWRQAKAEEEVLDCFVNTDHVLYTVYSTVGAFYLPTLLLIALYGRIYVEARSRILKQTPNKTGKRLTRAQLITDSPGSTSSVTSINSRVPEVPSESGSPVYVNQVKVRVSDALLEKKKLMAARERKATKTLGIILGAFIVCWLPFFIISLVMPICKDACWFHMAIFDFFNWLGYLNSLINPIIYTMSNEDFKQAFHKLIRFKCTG
Quantity Name: Ki

Q: Entry C[N+]1([O-])CCN(c2cccc3[nH]c(=O)oc23)CC1 [N-oxide of SLV308, N-Oxide of SLV308] : reported Ki = ?
Ans: > 1 µM

* * *

- Tested Target: UniProt P18825
- Sequence (P18825 1-462): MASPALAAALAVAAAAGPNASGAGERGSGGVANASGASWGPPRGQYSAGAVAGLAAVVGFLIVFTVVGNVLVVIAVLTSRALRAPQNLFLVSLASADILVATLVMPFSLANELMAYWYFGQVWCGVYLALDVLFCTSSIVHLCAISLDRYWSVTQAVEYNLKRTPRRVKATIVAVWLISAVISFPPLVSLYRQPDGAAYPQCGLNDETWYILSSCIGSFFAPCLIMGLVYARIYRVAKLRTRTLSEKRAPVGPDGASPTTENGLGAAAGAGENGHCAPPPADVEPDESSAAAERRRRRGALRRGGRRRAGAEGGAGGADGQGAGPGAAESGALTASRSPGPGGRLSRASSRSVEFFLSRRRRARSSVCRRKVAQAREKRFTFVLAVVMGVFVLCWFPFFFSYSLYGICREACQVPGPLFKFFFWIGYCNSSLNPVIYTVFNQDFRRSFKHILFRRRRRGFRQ
Quantity Name: Ki (µM)
Quick note: give the figure in µM, leave out the unit.

Q: Entry C[N+]1([O-])CCN(c2cccc3[nH]c(=O)oc23)CC1 [N-oxide of SLV308, N-Oxide of SLV308] : reported Ki = ?
Ans: 0.4

* * *

- Tested Target: Dopamine-D1 (Homo sapiens, UniProt P21728)
- Sequence (P21728 whole entry): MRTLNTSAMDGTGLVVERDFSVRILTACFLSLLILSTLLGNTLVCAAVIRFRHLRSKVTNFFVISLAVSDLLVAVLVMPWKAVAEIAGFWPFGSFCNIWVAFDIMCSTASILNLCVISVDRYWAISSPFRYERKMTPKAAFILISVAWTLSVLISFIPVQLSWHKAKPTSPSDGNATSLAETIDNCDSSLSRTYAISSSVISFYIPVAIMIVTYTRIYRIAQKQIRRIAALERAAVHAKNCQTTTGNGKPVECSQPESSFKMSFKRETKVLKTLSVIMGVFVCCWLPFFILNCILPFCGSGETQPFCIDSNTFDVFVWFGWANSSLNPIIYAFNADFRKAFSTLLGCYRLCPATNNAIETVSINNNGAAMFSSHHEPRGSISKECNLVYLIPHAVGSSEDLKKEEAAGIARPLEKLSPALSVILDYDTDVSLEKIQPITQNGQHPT
- Procedure Text: In vitro receptor affinity, Dopamine-D1
pKi: −log10 of the molar value.
Quantity Name: pKi

Q: Entry C[N+]1([O-])CCN(c2cccc3[nH]c(=O)oc23)CC1 [N-oxide of SLV308, N-Oxide of SLV308] : reported pKi = ?
Ans: < 6.00

* * *

- Tested Target: α2-adrenergic
- Procedure Text: In vitro receptor affinity, α2-adrenergic
- Particulars: rat; radioligand [3H]-RX 821002
Quantity Name: pKi
Scale: pKi equals -log10([C]), with [C] in mol/L.

Q: Entry C[N+]1([O-])CCN(c2cccc3[nH]c(=O)oc23)CC1 [N-oxide of SLV308, N-Oxide of SLV308] : reported pKi = ?
Ans: 6.30

* * *

- Tested Target: UniProtKB P08908
- Sequence (P08908 1-422): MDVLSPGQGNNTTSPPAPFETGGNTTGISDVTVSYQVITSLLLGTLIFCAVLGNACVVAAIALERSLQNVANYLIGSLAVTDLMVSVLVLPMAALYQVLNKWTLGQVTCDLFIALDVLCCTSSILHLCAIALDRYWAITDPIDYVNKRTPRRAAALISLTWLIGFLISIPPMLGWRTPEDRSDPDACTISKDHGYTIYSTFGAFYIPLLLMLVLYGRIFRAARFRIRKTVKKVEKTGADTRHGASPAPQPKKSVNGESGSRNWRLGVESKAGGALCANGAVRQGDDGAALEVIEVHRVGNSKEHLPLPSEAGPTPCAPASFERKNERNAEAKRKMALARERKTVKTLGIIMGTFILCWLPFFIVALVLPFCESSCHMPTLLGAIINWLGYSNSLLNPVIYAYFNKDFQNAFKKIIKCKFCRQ
Quantity Name: Ki (nM)
Quick note: give the figure in nM, leave out the unit.

Q: Entry C[N+]1([O-])CCN(c2cccc3[nH]c(=O)oc23)CC1 [N-oxide of SLV308, N-Oxide of SLV308] : reported Ki = ?
Ans: 200

* * *

- Tested Target: 5-HT2A (Homo sapiens, UniProt P28223)
- Sequence (P28223 whole entry): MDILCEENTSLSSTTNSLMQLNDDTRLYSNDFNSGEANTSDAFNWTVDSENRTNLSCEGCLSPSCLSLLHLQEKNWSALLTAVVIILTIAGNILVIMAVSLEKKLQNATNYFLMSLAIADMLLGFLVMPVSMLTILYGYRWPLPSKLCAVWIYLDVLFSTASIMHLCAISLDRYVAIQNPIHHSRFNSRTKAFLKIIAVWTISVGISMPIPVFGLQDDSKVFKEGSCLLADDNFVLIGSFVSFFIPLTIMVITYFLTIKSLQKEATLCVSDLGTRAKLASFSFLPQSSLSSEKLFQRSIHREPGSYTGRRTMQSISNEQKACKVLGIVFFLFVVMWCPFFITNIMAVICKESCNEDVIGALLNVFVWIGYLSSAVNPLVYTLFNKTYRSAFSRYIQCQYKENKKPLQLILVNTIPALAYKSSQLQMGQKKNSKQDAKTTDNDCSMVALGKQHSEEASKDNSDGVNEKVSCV
pKi: −log10 of the molar value.
Quantity Name: pKi

Q: Could you share what pKi was measured for C[N+]1([O-])CCN(c2cccc3[nH]c(=O)oc23)CC1 [N-oxide of SLV308, N-Oxide of SLV308] , tested on 5-HT2A (Homo sapiens, UniProt P28223)?
Ans: < 6.00
